Hello, the source for this data is the NIST ThermoML archive (doi:10.1021/je0302304), in case you need it.

# PROTOCOL_DESCRIPTION: xn = mol fraction of the nth substance listed
# TEST_CONDITIONS: 308.15 K; 101.32 kPa; Liquid; x1 = 0.7999
REPORTED_PROPERTY: mass density (kg/m3)
Provide only the numeric value, understood in kg/m3.

Below, 2 compounds whose answers are already recorded.
- COMPOUND: "COCCOCCOC [2,5,8-trioxanonane] + CCO"
  mass density, kg/m3: 915.4
- COMPOUND: "COCCOCCOCCOC [2,5,8,11-tetraoxadodecane] + CCO"
  mass density, kg/m3: 957.1

So what does the record say about mass density for COCCOCCOCCOCCOC [2,5,8,11,14-pentaoxapentadecane] + CCO ?
985

What do you get for COCCOC [1,2-dimethoxyethane] + CCO ?
842.2

* * *

The following molecules are shown together with reported refractive index values.
# PROTOCOL_DESCRIPTION: refractive index (Na D-line) (dimensionless); xn = mol fraction of the nth substance listed
# TEST_CONDITIONS: 308.15 K; 101.32 kPa; Liquid; Standard Abbe refractometry; x1 = 0.0205
Numbers after ± are expanded uncertainties.

Use these answered entries as a reference point.
- MOLECULE: "COCCOCCOC [2,5,8-trioxanonane] + CCO"
  REPORTED_PROPERTY: "refractive index"
  MEASUREMENT: "1.3574 ± 0.0005"
- MOLECULE: "COCCOCCOCCOCCOC [2,5,8,11,14-pentaoxapentadecane] + CCO"
  REPORTED_PROPERTY: "refractive index"
  MEASUREMENT: "1.3608 ± 0.0003"
- MOLECULE: "COCCOCCOCCOC [2,5,8,11-tetraoxadodecane] + CCO"
  REPORTED_PROPERTY: "refractive index"
  MEASUREMENT: "1.359 ± 0.0005"

Proceed to the following item.
So what's the measured refractive index for this one? COCCOC [1,2-dimethoxyethane] + CCO
1.3557 ± 0.0005

* * *

# PROTOCOL_DESCRIPTION: xn = mol fraction of the nth substance listed
# TEST_CONDITIONS: 318.15 K; 101.32 kPa; Liquid; x1 = 0.4
REPORTED_PROPERTY: mass density (kg/m3)
Give just the numeric value; kg/m3 need not be written.

- MOLECULE: "COCCOCCOCCOCCOC [2,5,8,11,14-pentaoxapentadecane] + CCO"
  mass density [kg/m3]: 929.8
- MOLECULE: "COCCOCCOC [2,5,8-trioxanonane] + CCO"
  mass density [kg/m3]: 863.5
- MOLECULE: "COCCOCCOCCOC [2,5,8,11-tetraoxadodecane] + CCO"
  mass density [kg/m3]: 901.1

Value lookup for mass density; key = COCCOC [1,2-dimethoxyethane] + CCO
808.7

* * *

# PROTOCOL_DESCRIPTION: refractive index (Na D-line) (dimensionless); xn = mol fraction of the nth substance listed
# TEST_CONDITIONS: 308.15 K; 101.32 kPa; Liquid; Standard Abbe refractometry; x1 = 0.2
REPORTED_PROPERTY: refractive index
Answer with a number only.

- MOLECULE: "COCCOCCOCCOC [2,5,8,11-tetraoxadodecane] + CCO"
  refractive index: 1.3834
- MOLECULE: "COCCOCCOC [2,5,8-trioxanonane] + CCO"
  refractive index: 1.3734
- MOLECULE: "COCCOC [1,2-dimethoxyethane] + CCO"
  refractive index: 1.3609

Now take the following molecule into account.
# input molecule: COCCOCCOCCOCCOC [2,5,8,11,14-pentaoxapentadecane] + CCO ; wanted: its refractive index
1.392
